Test system: MDA-MB-435 melanoma
Test: NCI-60 one-dose screen, 48 h
Details: 10 µM
Method: Growth inhibition of the MDA-MB-435 human Melanoma tumor cell line is measured as a screen for anti-cancer activity. Cells are grown in 96 well plates and exposed to the test compound for 48 hours. Compounds are tested at a single concentration, which is 10^-5 M for most compounds. The reported endpoint is percent growth (GI% or GIPRCNT), where numbers from 0 - 100% represent growth inhibition, and numbers from -100% - 0 represent cell death. […]
This is part of a sample that, as a whole, favours compounds with a hit. Of some 83,000 tested, about 20% had one in any assay. Calls of active or inactive are those of the source. The calls were made as follows: active = growth percent below 10; inactive = the rest.
Respond with a class label; see True (active), False (inactive)

Example entries and their recorded answers appear below.
>>> qualitative_label("O=C(/C=C/c1ccco1)c1nc2ccccc2n1Cc1ccc(F)cc1")
"False"
>>> qualitative_label("O=C(/C=C/c1ccc(Br)cc1)c1nc2ccccc2n1Cc1ccc(Br)cc1")
"True"
>>> qualitative_label("COc1cc2cc(C(=O)N3C[C@@H](CCl)c4c3cc(OC(=O)N3CCN(C(=O)CCC(=O)N5CCN(C)CC5)[C@@H]5CSSC[C@@H]53)c3ccccc43)[nH]c2c(OC)c1OC")
"True"

Task: Per the assay record, what outcome was assigned to CC[C@]12C=CCN3CC[C@@]4(c5ccc(OC)cc5N(C)[C@H]4[C@@](O)(C(=O)OC)[C@@H]1OC(=O)CCCC[P+](c1ccc(OC)cc1)(c1ccc(OC)cc1)c1ccc(OC)cc1)[C@@H]32 ?
Output: True
